Assay: gradient 5% acetonitrile 3 min, to 50% in 2 min, to 85% in 15 min, held 3 min, 100 µL/min
Details: column: Zorbax Extend-C18 2.1 x 50 mm; eluents: water / acetonitrile, 0.1% formic acid
Each item that follows carries a reported RP-LC retention time.

COMPOUND: CC(=O)N1CCC(C(=O)NCc2ccc(-c3nc(-c4cccs4)no3)s2)CC1
RP-LC retention time / s: 731
--
COMPOUND: O=C(Cc1c[nH]c2ccccc12)NC1(c2nc(-c3ccncc3)no2)CCCCC1
RP-LC retention time / s: 807
--
COMPOUND: Cc1nc(-c2ccc(S(=O)(=O)N3CCc4ccccc4C3)cc2)co1
RP-LC retention time / s: 1020
--
COMPOUND: Cn1nccc1-c1cccc(-c2noc(-c3cccnc3)n2)c1
RP-LC retention time / s: 876
--
COMPOUND: Nc1nc(-c2ccccc2)c(C(=O)Nc2ccccc2)s1
RP-LC retention time / s: 706
--
COMPOUND: CC(C)c1noc(-c2cccnc2N2CCCN(Cc3cccc(Cl)c3)CC2)n1
RP-LC retention time / s: 742
--
COMPOUND: CCCc1noc(-c2ccnc(-n3cnc(C(=O)N4CCCC(C)C4)c3)c2)n1 (stereo not given)
RP-LC retention time / s: 944
--
COMPOUND: COc1ccc(N2CC(c3nc(-c4ccc(Cl)cc4)no3)CC2=O)cc1 (stereo not given)
RP-LC retention time / s: 998
--
COMPOUND: O=S(=O)(c1ccccc1Br)N1CCc2nc(-c3ccccc3)ncc2C1
RP-LC retention time / s: 1090
--
COMPOUND: CCc1nnc(-c2nnc(N3CCCC3)c3ccccc23)o1
RP-LC retention time / s: 625
--
COMPOUND: O=C(Nc1cccc(F)c1)c1nnc(C(=O)N2CCC(C(=O)NC3CCCC3)CC2)s1
RP-LC retention time / s: 786
--
COMPOUND: COc1cc2c(cc1OC)C(C(=O)N(C)c1ccc(Cl)cc1)C(c1cccnc1)N(C)C2=O (stereo not given)
RP-LC retention time / s: 674
--
COMPOUND: COC(=O)c1ccc2c(=O)n(Cc3cccc(OC)c3)c(N3CCN(c4ccccn4)CC3)nc2c1
RP-LC retention time / s: 741
--
COMPOUND: COc1ccc(-c2nc(CN3C(=O)C(O)(c4ccc(C)cc4)c4ccccc43)c(C)o2)cc1 (stereo not given)
RP-LC retention time / s: 1090
--
COMPOUND: CCOc1ccccc1C(=O)n1nc(C)c(S(=O)(=O)N2CCC(C)CC2)c1C
RP-LC retention time / s: 1230
--
COMPOUND: CCC1(O)CCC12CCN(C(=O)CCC1CCCC1)CC2 (stereo not given)
RP-LC retention time / s: 924
--
COMPOUND: Cc1nc(N)n(CC(=O)NCc2ccccc2)c(=O)c1C
RP-LC retention time / s: 611
--
COMPOUND: Cc1cc2n(n1)CCCN2C(=O)CCC(=O)N1CCC(Cc2ccccc2)CC1
RP-LC retention time / s: 818
--
COMPOUND: COc1ccc(S(=O)(=O)N2CCc3nn(CC4CC4)c(=O)n3CC2)cc1Cl
RP-LC retention time / s: 786
--
COMPOUND: O=S(=O)(Nc1cccc(F)c1)c1ccc(-c2nnc(C3CCC3)o2)o1
RP-LC retention time / s: 856
--
COMPOUND: Cc1noc(-c2ccnc(-n3cnc(C(=O)NCCC(C)C)c3)c2)n1
RP-LC retention time / s: 849
--
COMPOUND: COc1ccc2nc(NC(=O)Cc3csc4nc(-c5ccccc5)cn34)sc2c1
RP-LC retention time / s: 810
--
COMPOUND: COc1ccc2c(c1)CCc1sc(NC(=O)c3ccco3)nc1-2
RP-LC retention time / s: 961
--
COMPOUND: Cc1cc(C)n(-c2ccc(C(=O)NCc3ccc(C(C)C)cc3)cn2)n1
RP-LC retention time / s: 1100
--
COMPOUND: COC(=O)c1cccc(C(=O)Nc2cccc(C)c2C)n1
RP-LC retention time / s: 899
--
COMPOUND: Cc1ccc2c(n1)nn1c(C)cc(C)nc21
RP-LC retention time / s: 557
--
COMPOUND: COc1ccc(CC(=O)Nc2cc(N3CCOCC3)ncn2)cc1OC
RP-LC retention time / s: 582
--
COMPOUND: O=C(CCc1cccc2[nH]ccc12)NCc1ccc(N2CCCCC2)cc1
RP-LC retention time / s: 612
--
COMPOUND: CCN1c2cc(Cl)ccc2C(=O)NC12CCN(C(=O)NCc1ccc(C)cc1)CC2
RP-LC retention time / s: 888
--
COMPOUND: CCOC(=O)c1ccccc1NC(=O)N1CCSc2nc(C)cc(C)c21
RP-LC retention time / s: 1000
--
COMPOUND: O=C(CNC(=O)Cc1ccc(Cl)cc1)NCC(=O)N1CCCc2ccccc21
RP-LC retention time / s: 770
--
COMPOUND: CCc1noc(C2(NC(=O)c3nccc4ccccc34)CCCCC2)n1
RP-LC retention time / s: 1060
--
COMPOUND: CCc1noc(-c2ccc(-n3ncc(C(=O)N4CCOCC4)c3C)nc2)n1
RP-LC retention time / s: 752
--
COMPOUND: CCCCNC(=O)C1CCCN(C(=O)c2[nH]c(C)c(C(=O)OC(C)C)c2C)C1 (stereo not given)
RP-LC retention time / s: 754
--
COMPOUND: c1nc(NC2CCCCCC2)c2[nH]cnc2n1
RP-LC retention time / s: 564
--
COMPOUND: O=C(Cn1cccc(-c2nc(-c3ccccc3)no2)c1=O)Nc1ccc(Br)cc1
RP-LC retention time / s: 968
--
COMPOUND: O=C(Cc1csc2nc(-c3ccccc3)cn12)NCCC1=CCCCC1
RP-LC retention time / s: 864
--
COMPOUND: CCOC(=O)c1cccc(N2C=C(C#N)S(=O)(=O)c3cc(F)ccc32)c1
RP-LC retention time / s: 937
--
COMPOUND: CC(C)(C)NC(=O)NCC(c1ccsc1)N1CCc2ccccc2C1 (stereo not given)
RP-LC retention time / s: 593
--
COMPOUND: c1cc(N2CCSCC2)ncc1-c1noc(CN2CCN(C3CCCCC3)CC2)n1
RP-LC retention time / s: 655
